# TESTED SYSTEM: P. vivax DHFR (dihydrofolate reductase) (Plasmodium vivax, UniProt O02604)
# Sequence (O02604 1-237): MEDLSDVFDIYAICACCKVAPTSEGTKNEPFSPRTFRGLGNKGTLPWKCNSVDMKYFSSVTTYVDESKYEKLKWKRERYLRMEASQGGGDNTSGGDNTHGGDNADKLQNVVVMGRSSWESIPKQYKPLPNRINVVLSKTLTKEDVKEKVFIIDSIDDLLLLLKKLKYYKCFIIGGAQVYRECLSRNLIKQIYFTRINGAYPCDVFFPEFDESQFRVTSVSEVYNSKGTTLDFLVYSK
MEASURE NAME: IC50 (nM)
The reply should be a number in nM, with the unit left off.

For the compound CO[C@@H]1[C@H](OC(=O)NC(=O)CCl)CC[C@]2(CO2)[C@H]1[C@@]1(C)O[C@@H]1CC=C(C)C [TNP-470] , what IC50 is on record?
160
